- Tested on: rgRSV224 virus
- runDescription: Antiviral activity: inhibition of rgRSV224 (GFP-expressing RSV) replication in HeLa cells, GFP expression read-out
- Type: cell-based, respiratory syncytial virus (RSV)
- conditionDescription: rgRSV224 virus (MOI=1) in HeLa cells, GFP read-out
Decide by RSV HELA pEC50: equal to or exceeding 7 means t, less means f.

// known answers, use as guide
- compound: "CCCC(C)N(CC)C(=O)c1cc(CC)n2nc(-c3ccccc3F)cc2n1 (centres unmarked)"
  label: "f"
- compound: "CCc1cc(C(=O)N2CCCCCN2C)nc2cc(-c3cccc(/C=C/C(=O)O)c3F)nn12"
  label: "f"
- compound: "CCCC(C)N(C)C(=O)c1cc(CC)n2nc(-c3cccc(/C=C/C(=O)O)c3F)cc2n1 (centres unmarked)"
  label: "f"

Decide: RSV HELA pEC50 of CCc1cc(C(=O)N2CCc3ccccc3C2C)nc2cc(-c3cc4cccnc4cc3F)nn12 (centres unmarked) >= 7?
f

Decide: RSV HELA pEC50 of C[C@@H]1c2ccccc2CCN1C(=O)c1cc(C2(C)CC2)n2nc(-c3cccc(/C=C/C(=O)O)c3F)cc2n1 >= 7?
t

Decide: RSV HELA pEC50 of CCc1cc(C(=O)N2CCn3cccc3C2C)nc2cc(-c3cccc(/C=C/C(=O)O)c3F)nn12 (centres unmarked) >= 7?
t

Decide: RSV HELA pEC50 of C[C@@H]1CCCCCN1C(=O)c1cc(C2CCC2)n2nc(-c3ccc(/C=C/C(=O)O)cc3F)cc2n1 >= 7?
t

Decide: RSV HELA pEC50 of CCc1cc(C(=O)N2CCCCCC2C)nc2cc(-c3ccccc3Cl)nn12 (centres unmarked) >= 7?
f

Decide: RSV HELA pEC50 of CC(C)Cc1cc(C(=O)N2CCCCC[C@H]2C)nc2cc(-c3ccc(N4CC[C@H](C(=O)O)C4)cc3F)nn12 >= 7?
t

Decide: RSV HELA pEC50 of CC(C)Cc1cc(C(=O)N2CCCCC[C@H]2C)nc2cc(-c3ccc(-n4cc(C(=O)O)cn4)cc3F)nn12 >= 7?
t

====

The entries below come with measured melting point values attached.

The cases that follow already have their melting point on record.
- compound: "CC(C)Cc1cc(C(=O)N2CCCCC[C@H]2C)nc2cc(-c3cccc(/C=C/C(=O)O)c3F)nn12 [Compound M29]"
  resultType: "melting point"
  resultValue: "176 °C"
- compound: "CCc1cc(C(=O)N2CCCCC2C)nc2cc(-c3ccc(-c4ccncc4)cc3)nn12 (stereo not drawn) [Compound F1]"
  resultType: "melting point"
  resultValue: "150 to 151 °C"

Here's the next entry for you.
Lab note: CCc1cc(C(=O)N2CCCCC2C)nc2cc(-c3ccc(NC(=O)C4CC4)cc3)nn12 (stereo not drawn) [Compound E15] gave melting point of 260 to 265 °C

====

resultType: melting point

The cases that follow already have their melting point on record.
- compound: "CCc1cc(C(=O)N2CCCCCC2C)nc2cc(-c3c(F)cc(C(N)=O)cc3F)nn12 (stereo not drawn)"
  resultValue: "160 to 165 °C"
- compound: "C[C@@H]1CCCCCN1C(=O)c1cc(C2(C)CC2)n2nc(-c3ccc(-c4ccc(C(=O)O)cn4)cc3F)cc2n1"
  resultValue: "257.89 °C"

Here's the next entry for you.
Lab note: CCc1cc(C(=O)N2CCCCCC2C)nc2cc(-c3ccc(-c4ncc(C)cn4)cc3F)nn12 (stereo not drawn) gave melting point of 140 to 145 °C

====

The entries below come with measured melting point values attached.

- compound: "CCc1cc(C(=O)N2CCCCCCC2C)nc2cc(-c3ccc(C(=O)O)cc3F)nn12 (stereo not drawn)"
  resultValue: "133 to 134 °C"
- compound: "CCc1cc(C(=O)N2CCCCCC2C)nc2cc(-c3ccc(/C=C/C(=O)O)cc3F)nn12 (stereo not drawn)"
  resultValue: "205 to 210 °C"
- compound: "CCc1cc(C(=O)N2CCCCCC2C)nc2nc(-c3ccc(NC(=O)NCC4CCCO4)cc3F)nn12 (stereo not drawn)"
  resultValue: "185 to 190 °C"
- compound: "CCc1cc(C(=O)N2CCCCC[C@H]2C)nc2cc(-c3ccc(NC(=O)C4CC4)cc3F)nn12"
  resultValue: "225 to 230 °C"
- compound: "CCc1cc(C(=O)N2CCCCCC2C)nc2cc(-c3ccc4[nH]cnc4c3)nn12 (stereo not drawn)"
  resultValue: "145 to 150 °C"
- compound: "CCc1cc(C(=O)N2CCc3c([nH]c4ccccc34)C2C)nc2cc(-c3ccc(C(N)=O)cc3F)nn12 (stereo not drawn)"
  resultValue: "205 to 210 °C"

Lab note: CCc1cc(C(=O)N2CCCCCC2C)nc2cc(-c3ccc4ncccc4c3)nn12 (stereo not drawn) gave melting point of 170 to 175 °C

Lab note: CCc1cc(C(=O)N2CCCCCC2C)nc2cc(-c3ccc4c(c3)CC(=O)N4)nn12 (stereo not drawn) gave melting point of 230 to 235 °C

====

resultType: melting point

The cases that follow already have their melting point on record.
- molecule: "CCc1cc(C(=O)N2CCCCCC2C)nc2cc(-c3ccc(NC(=O)NCC4CC4)cc3)nn12 (centres unmarked)"
  melting point: "165 to 170 °C"
- molecule: "CCc1cc(C(=O)N2CCCCCC2C)nc2nc(-c3ccc(NC(=O)C4CC4)cc3F)nn12 (centres unmarked)"
  melting point: "210 to 215 °C"
- molecule: "CCc1cc(C(=O)N2CCCCCC2C)nc2cc(-c3csc(NC(=O)C4CC4)n3)nn12 (centres unmarked)"
  melting point: "277 to 279 °C"

Lab note: CCc1cc(C(=O)N2CCCCCC2C)nc2cc(-c3ccc(N/C(=N/C#N)NC4CC4)cc3)nn12 (centres unmarked) gave melting point of 222 to 223 °C

====

- Test system: rgRSV224 virus
- runDescription: Antiviral activity: inhibition of rgRSV224 (GFP-expressing RSV) replication in HeLa cells, GFP expression read-out
- Assay type: cell-based, respiratory syncytial virus (RSV)
- conditionDescription: rgRSV224 virus (MOI=1) in HeLa cells, GFP read-out
resultType: RSV HELA pEC50
The response must contain the number and no unit.

The cases that follow already have their RSV HELA pEC50 on record.
- compound: "C[C@@H]1CCCCCN1C(=O)c1cc(C2(C)COC2)n2nc(-c3ccc(C4C[C@H]4C(=O)O)cc3F)cc2n1 (stereo partly shown) [Compound O17]"
  systemTested: "rgRSV224 virus"
  RSV HELA pEC50: 7.29
- compound: "CN1CCCCCN1C(=O)c1cc(C2(C)CC2)n2nc(-c3cccc(/C=C/C(=O)O)c3F)cc2n1 [Compound M37]"
  systemTested: "rgRSV224 virus"
  RSV HELA pEC50: 7.10
- compound: "CNc1cc(C(=O)N2CCc3ccccc3C2C)nc2cc(-c3ccc(/C=C/C(=O)O)cc3F)nn12 (stereo not shown) [Compound M8]"
  systemTested: "rgRSV224 virus"
  RSV HELA pEC50: 7.31
- compound: "CCc1cc(C(=O)N2CCCCC[C@H]2C)nc2cc(-c3ccc(OC)c(/C=C/C(=O)O)c3F)nn12 [Compound M34]"
  systemTested: "rgRSV224 virus"
  RSV HELA pEC50: 7.04
- compound: "CCc1cc(C(=O)N2CCCCC[C@H]2C)nc2cc(-c3ccc4oc(C(=O)O)cc4c3F)nn12 [Compound F44]"
  systemTested: "rgRSV224 virus"
  RSV HELA pEC50: 6.40
- compound: "CCc1cc(C(=O)N2CCCCC[C@H]2C)nc2cc(-c3ccc4c(c3F)OCC(C(=O)O)C4)nn12 (stereo partly shown) [Compound F42]"
  systemTested: "rgRSV224 virus"
  RSV HELA pEC50: 7.16
- compound: "CCc1cc(C(=O)N2CCCC3(CC=CC3)C2C)nc2cc(-c3cccc(/C=C/C(=O)O)c3F)nn12 (stereo not shown) [Compound M39]"
  systemTested: "rgRSV224 virus"
  RSV HELA pEC50: 6.19
- compound: "CCc1cc(C(=O)N2CCCCC[C@H]2C)nc2cc(-c3ccc4c(c3F)C=C(C(=O)O)CO4)nn12 [Compound F46]"
  systemTested: "rgRSV224 virus"
  RSV HELA pEC50: 7.31
- compound: "CC1c2ccsc2CCN1C(=O)c1cc(C2(C)CC2)n2nc(-c3cccc(/C=C/C(=O)O)c3F)cc2n1 (stereo not shown) [Compound M47]"
  systemTested: "rgRSV224 virus"
  RSV HELA pEC50: 7.87
- compound: "CCc1cc(C(=O)N2CCc3ccccc3[C@H]2C)nc2cc(-c3ccc4cc(C(=O)O)ccc4c3F)nn12 [Compound F34]"
  systemTested: "rgRSV224 virus"
  RSV HELA pEC50: 7.46

Lab note: CCc1cc(C(=O)N2CCc3ccccc3[C@H]2C)nc2cc(-c3ccc4c(c3F)OCC(C(=O)O)=C4)nn12 [Compound F54] gave RSV HELA pEC50 of 8.59

Lab note: C[C@@H]1CCCCCN1C(=O)c1cc(C2CC2)n2nc(-c3ccc(/C=C/C(=O)O)cc3F)cc2n1 [Compound M21] gave RSV HELA pEC50 of 7.16

Lab note: CCc1cc(C(=O)N2CCn3nccc3C2C)nc2cc(-c3ccc(C(N)=O)cc3F)nn12 (stereo not shown) [Compound I37] gave RSV HELA pEC50 of 6.24
